# System: SNB-75
# ASSAY_DETAILS: NCI tumour cell line growth inhibition, 48 h
Active and inactive are the calls of the source. Cut-off read from the data, not from the text of the source: active = GI50 up to about 1.1 µM and inactive = higher.
What GI50 was measured for each of the following?

Ask: Lab note: SNB-75 assay, enter GI50 for COc1ccc(/N=C(/[N-]n2c(=O)c(C)nn(C)c2=S)N(c2ccc(OC)cc2)c2n[n+]3c(=O)c(C)nn(C)c3s2)cc1 here
Reply: > 100 µM (inactive)

Ask: Retrieve GI50 on SNB-75; query Cc1cc(O)c2c(c1O)C(=O)c1cccc(O)c1C2=O [ISLANDICIN]
Reply: 43.1 µM (inactive)

Ask: Name the value of GI50 reported for COc1ccc2nc3cc(Cl)ccc3c(Sc3ccccc3[N+](=O)[O-])c2c1 when tested on SNB-75.
Reply: 16.9 µM (inactive)

Ask: Tell me its GI50 on SNB-75: Clc1ccc(-c2cn3c(nc4ccccc43)c(/C=C/c3cccs3)n2)cc1
Reply: > 100 µM (inactive)

Ask: Under SNB-75: report GI50 of CC(=O)OC1c2ccccc2CCCCCCC12OCCO2 (stereo unspecified) .
Reply: > 100 µM (inactive)

Ask: For SNB-75, give the measured GI50 of the entry CCOC(=O)CCCn1nnc(C(=O)OCC)c1C(=O)OCC
Reply: > 100 µM (inactive)
